Quick reference: glycan array binding signal (z-score) of the listed items.
target.of.assay: Man(a1-2)Man(a1-6)[Man(a1-3)]Man(a1-6)[Man(a1-2)Man(a1-2)Man(a1-3)]Man(b1-4)GlcNAc(b1-4)GlcNAc
assay.details: glycan array binding signal (z-score within array); higher = stronger binding
condition.context: glycan notation: IUPAC condensed, linker removed
This is one part of a sample in which the strongest signals are shown more often than they occur.
property: glycan array binding signal (z-score)

binder | reported.measurement
HBHA-Rv (Mycobacterium tuberculosum), P0A5P6 (protein) MAENSNIDDIKAPLLAALGAADLALATVNELITNLRERAEETRTDTRSRVEESRARLTKLQEDLPEQLTELREKFTAEELRKAAEGYLEAATSRYNELVERGEAALERLRSQQSFEEVSARAEGYVDQAVELTQEALGTVASQTRAVGERAAKLVGIELPKKAAPAKKAAPAKKAAPAKKAAAKKAPAKKAAAKKVTQK | 1.09
AFL (Aspergillus fumigatus), Q4WW81 (protein) STPGAQQVLFRTGIAAVNLTNHLRVYFQDVYGSIRESLYEGSWANGTEKNVIGNAKLGSPVAATSKELKHIRVYTLTEGNTLQEFAYDSGTGWYNGGLGGAKFQVAPYSRIAAVFLAGTDALQLRIYAQKPDNTIQEYMWNGDGWKEGTNLGGALPGTGIGATSFRYTDYNGPSIRIWFQTDDLKLVQRAYDPHKGWYPDLVTIFDRAPPRTAIAATSFGAGNSSIYMRIYFVNSDNTIWQVCWDHGKGYHDKGTITPVIQGSEVAIISWGSFANNGPDLRLYFQNGTYISAVSEWVWNRAHGSQLGRSALPPA | -0.376
Pwp3 (Candida glabrata) (protein) MGSSHHHHHHSSGLVPRGSHMASKNPVDFTTVCQFPDNFSKKPGFLATTARLGLWITGNSYKELLNYPGTFTLTTQQASTTTPNIQLRGTDLFTTIYGLTVYPLYLLVELQGYFVPTQSGMYTFSLTGSDDAAIIFIGNPSTFPCDAFKTWPQATANDITVTDSINPSRTLYMVKGVAYPLRIAYYNGLGNGVLNAAFTDPSGTKRTDWNGYIWQYDQCSTCTYK | -0.066
CBP21 (Serratia marcescens), O83009 (protein) MNKTSRTLLSLGLLSAAMFGVSQQANAHGYVESPASRAYQCKLQLNTQCGSVQYEPQSVEGLKGFPQAGPADGHIASADKSTFFELDQQTPTRWNKLNLKTGPNSFTWKLTARHSTTSWRYFITKPNWDASQPLTRASFDLTPFCQFNDGGAIPAAQVTHQCNIPADRSGSHVILAVWDIADTANAFYQAIDVNLSK | 0.074
Pwp2 (Candida glabrata) (protein) MGSSHHHHHHSSGLVPRGSHMASKNPVELNNVCTFPNDYGRIPGFTVLVGRLGLLISASDYKELLRYPGAFLIATQDTMTTSPNFELTGFPFFTGLYGLTVFPLDLLVELRGYFVPPNSGQYTFTLSDSDDAAIIFLGNPSAFPCGDLQNWPKPSEEDITVTDHLFPSRTLYLIEGVAYPMRIAYYNGIGAGRLNAAFIDPSGTRHTNWEGYIWQYDPCSTCTYS | -0.467
TES70 (Toxocara canis), Q9XYV5 (protein) MISVVLVAIALQISGSYAGACNSINDCGLFETCVNNMCVPDNMGCPMPCQAGQVCVPPNCVAAPAPQPVTTTTAAATTTTSARGRCNANAQCGAFEVCVNGMCQPNNAGCNPPCAANQVCVAPNCVPAPIPPPAQSTTTAPATTRAPPSCPPSWSPFSGHCYYVAVGSFLFNQASDWCTQTNSRPVWFDQSNVGTFGAELYFINVLAASRGVQTYWLGLNRQFGQWVWTNGSPLIFSNWRGSEPDGCCGGNVTCALVNYANPFGQWDDAGCGNIWRNPQGFICKKPLA | -0.137
ConA (Canavalia ensiformis), P02866 (protein) MAISKKSSLFLPIFTFITMFLMVVNKVSSSTHETNALHFMFNQFSKDQKDLILQGDATTGTDGNLELTRVSSNGSPQGSSVGRALFYAPVHIWESSAVVASFEATFTFLIKSPDSHPADGIAFFISNIDSSIPSGSTGRLLGLFPDANVIRNSTTIDFNAAYNADTIVAVELDTYPNTDIGDPSYPHIGIDIKSVRSKKTAKWNMQNGKVGTAHIIYNSVDKRLSAVVSYPNADSATVSYDVDLDNVLPEWVRVGLSASTGLYKETNTILSWSFTSKLKSNEIPDIATVV | 4.46
SSP1 (Sclerotinia sclerotiorum), XP_001584968 (protein) MGSSHHHHHHSSGLVPRGSHMSLLTTELACTSAPDQVLHLFFQDGQNILEARSPDGGNVWTTQDTIIAKDGDYNGSSMTCYYVDKDANFDNQPSIHLLYMNKDKQLTEKVKRMKGDNPIWEDAKVPDEVRKGPEQYSKLTSGSFNQGTGWNPNGSQWAYFSASKDGKMGIVEIRRTPKDPWHTETILEEKWGDELPGTALACVIGNGKIRVFLQHHDYSIILYENQNNTWHDRGTFIPKDKVQATTPLACTMTKDGSVHLFYVSKSNKIIHCTDGKKEEELINFFPGSKLGATSVENKITLFFRNLNPVNEVGTLENENGSWKHGTTVIPA | -0.467
Pwp7 (Candida glabrata) (protein) MGSSHHHHHHSSGLVPRGSHMASKNPVDFPNLCQYPNLDGAVAGFDTEIYNADPSILINFSLWPILQFPKEWHKTIGRAITTQTNFKLPASDTTLFGVSIPTQNILIEFRGYFIPPKSGTYTFALYLTDDGSAMFLGNDAAFPCGNITSWSNPTNDQVSVSDYDPKKKTLTVYMVAGVAYPLRIAYYNREKGGSLTASFVDPDGLTHSDWNGYIWTLPSCDNCKYS | -0.429
RfpB (Mycobacterium tuberculosum), O05594 (protein) MAAGLVTASMSLSTAVAHAGPSPNWDAVAQCESGGNWAANTGNGKYGGLQFKPATWAAFGGVGNPAAASREQQIAVANRVLAEQGLDAWPTCGAASGLPIALWSKPAQGIKHAGPSPNWDAVAQCESGGNWAANTGNGKYGGLQFKPATWAAFGGVGNPAAASREQQIAVANRVLAEQGLDAWPTCGA | -0.426
PEB4 (Campylobacter jejuni), A1VYV6 (protein) MKKFSLVAAALIAGVALNVNAATVATVNGKSISDAEVSEFFAPMLRGQDFKTLPDNQKKALIQQYIMQDLILQDAKKQNLEKDPLYTKELDRAKDAILVNVYQEKILNTIKIDAAKVKAFYDQNKDKYVKPARVQAKHILVATEKEAKDIINELKGLKGKELDAKFSELAKEKSIDPGSKNQGGELGWFDQSTMVKPFTDAAFALKNGTITTTPVKTNFGYHVILKENSQAKGQIKFDEVKQGIENGLKFEEFKKVINQKGQDLLNSAKVEYK | 0.969
